biological target: mutant HIV reverse transcriptases (Human immunodeficiency virus type 1, UniProt P12497, Y775L, cells depend on it); format: cell-based
pEC50: −log10 of the molar value.
pEC50 listing for selected compounds.

Input line: Return pEC50 (reported value) for this compound: CCOC(=O)CN(C)C(=O)c1ccc(NC(=O)CSc2nnc(Br)n2-c2ccc(CC)c3ccccc23)c(Cl)c1 [compound 108]
Output line: > 7.30

Input line: Could you please provide reported pEC50 for CC(C)C[C@H](NC(=O)c1ccc(NC(=O)CSc2nnc(Br)n2-c2ccc(C3CC3)c3ccccc23)c(Cl)c1)C(=O)O [compound 117] ? Thanks!
Output line: < 7.00

Input line: Give a short answer stating reported pEC50 for CCc1ccc(-n2c(Br)nnc2SCC(=O)Nc2ccc(C(=O)NCC3CCCO3)cc2Cl)c2ccccc12 (centres unmarked) [compound 125] .
Output line: > 7.30

Input line: State, in one line, measured pEC50 of Cc1ccc(-n2c(SCC(=O)Nc3ccc(S(=O)(=O)NC(C(=O)O)C(C)C)cc3Cl)nnc2C(F)F)c2c1CCCC2 (centres unmarked) [compound 60]
Output line: < 7.00

Input line: Report pEC50, nothing else, for this compound: CCCc1ccc(-n2c(Br)nnc2SCC(=O)Nc2ccc(S(N)(=O)=O)cc2C)c2ccccc12 [compound 86]
Output line: > 7.30

====

target: mutant HIV reverse transcriptases (Human immunodeficiency virus type 1, UniProt P12497, Y768C, cells depend on it)
Listed next: entries and their corresponding EC50.

Input line: Annotate the compound CCc1ccc(-n2c(CF)nnc2SCC(=O)Nc2ccc(S(=O)(=O)NC)cc2Cl)c2ccccc12 with its measured EC50.
Output line: < 50 nM

Input line: Report measured EC50; entry is COc1ccc2c(C3CC3)ccc(-n3c(Br)nnc3SCC(=O)Nc3ccc(S(=O)(=O)O)cc3Cl)c2c1 [compound 19]
Output line: 50 to 100 nM

Input line: Determine from records and report EC50 for CCCCCCNC(=O)c1ccc(NC(=O)CSc2nnc(Br)n2-c2ccc(CC)c3ccccc23)c(Cl)c1
Output line: < 50 nM

Input line: Assign EC50 to the following record: NS(=O)(=O)c1ccc(NC(=O)CSc2nnc(Br)n2-c2ccc(C3CC3)c3ccccc23)c(Cl)c1 [compound 39]
Output line: < 50 nM

Input line: Provide only the value of recorded EC50 for CCc1ccc(-n2c(Br)nnc2SCC(=O)Nc2ccc(S(N)(=O)=O)cc2Br)c2ccccc12
Output line: < 50 nM

Input line: Please look at this compound and report its EC50: Cc1ccc2c(C)ccc(-n3c(Br)nnc3SCC(=O)Nc3ccc(S(N)(=O)=O)cc3Br)c2c1
Output line: < 50 nM

Input line: Input O=C(CSc1nnc(Br)n1-c1cccc2c(OCC3CC3)cccc12)Nc1ccc(C(=O)O)cc1Cl , output reported EC50.
Output line: > 100 nM

====

Here the recorded pIC50 is given for each entry.
target: wild-type HIV reverse transcriptase (Human immunodeficiency virus type 1 group M subtype B); construct: wild-type and four mutant HIV reverse transcriptases; test: Activity on wild type reverse transcriptase (Table 1 IC50 WT); format: biochemical
pIC50: −log10 of the molar value.

>  <compound>
COc1ccc2c(C3CC3)ccc(-n3c(Br)nnc3SCC(=O)Nc3ccc(S(N)(=O)=O)cc3Cl)c2c1 [compound 72]

>  <pIC50>
> 7.30

$$$$

Input line: Return the recorded pIC50 value; entry: CCc1ccc(-n2c(Br)nnc2SCC(=O)Nc2ccc(C(=O)NCC3CCNCC3)cc2Cl)c2ccccc12 [compound 139]
Output line: < 7.00

Input line: Using the record for NS(=O)(=O)c1ccc(NC(=O)CSc2nnc(Br)n2-c2ccc3c4c(cccc24)CC3)c(Cl)c1 [compound 37] , state its measured pIC50.
Output line: > 7.30

Input line: Could you please provide reported pIC50 for CCCCNC(=O)c1ccc(NC(=O)CSc2nnc(Br)n2-c2ccc(CC)c3ccccc23)c(Cl)c1 [compound 121] ? Thanks!
Output line: 7.00 to 7.30

Input line: Name the recorded pIC50 of the compound listed here: COc1ccc2cccc(-n3c(Br)nnc3SCC(=O)Nc3ccc(C(=O)O)cc3Cl)c2c1 [compound 13]
Output line: > 7.30

Input line: Identify pIC50 associated with the compound CC(C)C[C@H](NC(=O)c1ccc(NC(=O)CSc2nnc(Br)n2-c2ccc(C3CC3)c3ccccc23)c(Cl)c1)C(=O)O [compound 117]
Output line: > 7.30

Input line: Write down pIC50 measured for item Cc1ccc(-n2c(SCC(=O)Nc3ccc(S(=O)(=O)NC(C(=O)O)C(C)C)cc3Cl)nnc2C(F)F)c2c1CCCC2 (stereo not drawn) [compound 60]
Output line: > 7.30

Input line: Give the value of pIC50 reported for the following: Cc1cc(C)c2ccccc2c1-n1c(SCC(=O)Nc2ccc(S(N)(=O)=O)cc2Cl)nnc1C(F)(F)F [compound 83]
Output line: > 7.30

====

molecular target: mutant HIV reverse transcriptases (Human immunodeficiency virus type 1, UniProt P12497, Y775L, cells depend on it)
pEC50: −log10 of the molar value.
measurementType: pEC50

>  <compound>
CCc1ccc(-n2c(Br)nnc2SCC(=O)Nc2ccc(C(=O)N[C@@H](CO)C(=O)OC)cc2Cl)c2ccccc12

>  <pEC50>
> 7.30

$$$$
>  <compound>
O=C(CSc1nnc(Br)n1-c1ccc(C2CC2)cc1Cl)Nc1ccc(S(=O)(=O)O)cc1Cl

>  <pEC50>
< 7.00

$$$$
>  <compound>
CCc1ccc(-n2c(Br)nnc2SCC(=O)Nc2ccc(C(=O)NCCCCO)cc2Cl)c2ccccc12

>  <pEC50>
> 7.30

$$$$
>  <compound>
CCc1ccc(-n2c(Br)nnc2SCC(=O)Nc2ccc(C(=O)N3CCC(O)CC3)cc2Cl)c2ccccc12

>  <pEC50>
> 7.30

$$$$

Input line: Give the reported value of pEC50 for this record: CCc1ccc(-n2c(Br)nnc2SCC(=O)Nc2ccc(C(=O)NCC(=O)O)cc2Cl)c2ccccc12
Output line: 7.00 to 7.30

Input line: Look up and report measured pEC50 for this entry: NS(=O)(=O)c1ccc(NC(=O)CSc2nnc(Br)n2-c2ccc(C3CC3)c3ccccc23)c(Cl)c1 [compound 39]
Output line: > 7.30

Input line: Give the measured pEC50 for CCCCNC(=O)c1ccc(NC(=O)CSc2nnc(Br)n2-c2ccc(CC)c3ccccc23)c(Cl)c1
Output line: > 7.30

====

target: mutant HIV reverse transcriptases (Human immunodeficiency virus type 1, UniProt P12497, Y775L, cells depend on it)
pEC50: −log10 of the molar value.
measurementType: pEC50

>  <compound>
NS(=O)(=O)c1ccc(NC(=O)CSc2nncn2-c2ccc(C3CC3)c3ccccc23)c(Cl)c1

>  <pEC50>
< 7.00

$$$$
>  <compound>
COc1ccc2c(C3CC3)ccc(-n3c(Br)nnc3SCC(=O)Nc3ccc(S(=O)(=O)O)cc3Cl)c2c1 [compound 19]

>  <pEC50>
< 7.00

$$$$
>  <compound>
CCc1ccc(-n2c(Br)nnc2SCC(=O)Nc2ccc(C(=O)NCC3CCNCC3)cc2Cl)c2ccccc12

>  <pEC50>
7.00 to 7.30

$$$$
>  <compound>
CCOC(=O)CN(C)C(=O)c1ccc(NC(=O)CSc2nnc(Br)n2-c2ccc(C3CC3)c3ccccc23)c(Cl)c1

>  <pEC50>
> 7.30

$$$$
>  <compound>
Cc1cc(C2CC2)c2ccccc2c1-n1c(Br)nnc1SCC(=O)Nc1ccc(C(=O)O)cc1Cl

>  <pEC50>
> 7.30

$$$$
>  <compound>
CCOC(=O)CCNC(=O)c1ccc(NC(=O)CSc2nnc(Br)n2-c2ccc(CC)c3ccccc23)c(Cl)c1

>  <pEC50>
< 7.00

$$$$

Input line: Identify the reported pEC50 for the following entry. CCc1ccc(-n2c(Br)nnc2SCC(=O)Nc2ccc(C(=O)NCCO)cc2Cl)c2ccccc12
Output line: > 7.30

====

molecular target: mutant HIV reverse transcriptases (Human immunodeficiency virus type 1, UniProt P12497, Y768C, cells depend on it)
measurementType: EC50

Worked examples follow.
>  <compound>
COc1ccc2c(C)ccc(-n3c(Br)nnc3SCC(=O)Nc3ccc(C(=O)O)cc3Cl)c2c1

>  <EC50>
< 50 nM

$$$$
>  <compound>
CCOC(=O)CN(C)C(=O)c1ccc(NC(=O)CSc2nnc(Br)n2-c2ccc(C3CC3)c3ccccc23)c(Cl)c1

>  <EC50>
< 50 nM

$$$$
>  <compound>
CCc1ccc(-n2c(SCC(=O)Nc3ccc(S(N)(=O)=O)cc3Cl)nnc2C(F)F)c2c1CCCC2

>  <EC50>
< 50 nM

$$$$
>  <compound>
O=C(CSc1nnc(Br)n1-c1ccc(C2CC2)cc1Cl)Nc1ccc(S(=O)(=O)O)cc1Cl

>  <EC50>
> 100 nM

$$$$
>  <compound>
CCOC(=O)CNC(=O)c1ccc(NC(=O)CSc2nnc(Br)n2-c2ccc(C3CC3)c3ccccc23)c(Cl)c1

>  <EC50>
< 50 nM

$$$$

Input line: Given CCc1ccc(-n2c(Br)nnc2SCC(=O)Nc2ccc(C(=O)NCCO)cc2Cl)c2ccccc12 , respond with its EC50.
Output line: < 50 nM

Input line: Write down EC50 measured for item Cc1ccc(-n2c(SCC(=O)Nc3ccc(S(=O)(=O)NC(C(=O)O)C(C)C)cc3Cl)nnc2C(F)F)c2c1CCCC2 (stereo not drawn)
Output line: > 100 nM

Input line: Respond only with EC50 recorded for O=C(CSc1nnc(Br)n1-c1ccc(C2CC2)c2ccccc12)Nc1ccc(C(=O)O)cc1Cl [compound 12]
Output line: < 50 nM
